PROTOCOL_TEXT: NCI Yeast Anticancer Drug Screen. Data for the mlh1 rad18 strain (AID 175)
MEASUREMENT_CONDITIONS: S. cerevisiae mlh1 rad18 strain growth inhibition; at 50.0 µM; hits give high values
This is part of a sample that, as a whole, favours compounds with a hit. Of some 79,000 tested, about 15% had one in any assay.
What growth inhibition was measured for each of the following?
Enter your answer as a number in %; do not include the unit.

[ask] Annotate the compound COC(=O)C1c2ccoc2CC2C1C(O)C(O)C1C(C)(C)CCCC21C (stereo not given) with its measured growth inhibition.
[reply] 92.5

[ask] Annotate the compound CCOC(=O)c1[nH]c(Cc2[nH]c(C(=O)OCC)c(CC)c2C)c(C)c1CC with its measured growth inhibition.
[reply] 24.2

[ask] Annotate the compound CON(C)c1nc2ccccc2o1 with its measured growth inhibition.
[reply] -17.6

[ask] Annotate the compound CCc1n[nH]c(=O)n1/N=C/c1ccc(C)cc1 with its measured growth inhibition.
[reply] -2.25

[ask] Annotate the compound Fc1ccc2c(c1)CC(CBr)O2 (stereo not given) with its measured growth inhibition.
[reply] 2.8

[ask] Annotate the compound C/C(CCn1[nH]c(=O)ccc1=O)=N\NC(=O)C(=O)NN with its measured growth inhibition.
[reply] -8.2

[ask] Annotate the compound COc1ccc(-c2ccc(Cc3ccc(-c4ccc(OC)cc4)o3)o2)cc1 with its measured growth inhibition.
[reply] 1

[ask] Annotate the compound O=[N+]([O-])c1ccc(SN2CCCCC2CC2CCCCC2)c([N+](=O)[O-])c1 (stereo not given) with its measured growth inhibition.
[reply] 3.1

[ask] Annotate the compound O=c1c(O)c(-c2cc(O)c(O)c(O)c2)oc2cc(O)ccc12 with its measured growth inhibition.
[reply] -29.8

[ask] Annotate the compound O=[N+]([O-])c1ccc2c(c1)C(=Nc1ccc(Cl)cc1)c1ccccc1-2 with its measured growth inhibition.
[reply] 5.45

[ask] Annotate the compound NC(CCCNc1nc(O)c(-c2ccccc2)c(=O)[nH]1)C(=O)O (stereo not given) with its measured growth inhibition.
[reply] -3.55

[ask] Annotate the compound CCC1OC(=O)C(C)C(OC2CC(C)(O)C(O)C(C)O2)C(C)C(O)C(C)(O)CC(C)C(=O)C(C)C(O)C1C (stereo not given) with its measured growth inhibition.
[reply] -5.15

[ask] Annotate the compound CCCCCSCCC(=O)O with its measured growth inhibition.
[reply] -6.35

[ask] Annotate the compound CCOCN1COCN(C)C1=O with its measured growth inhibition.
[reply] 3.95

[ask] Annotate the compound CCCCCCCCCCCCCCCCCC(C)O (stereo not given) with its measured growth inhibition.
[reply] -10.8

[ask] Annotate the compound S=C(S)N1CCN(c2cccc(Cl)c2)CC1 with its measured growth inhibition.
[reply] 70.5

[ask] Annotate the compound CCC(=O)/C=C/c1ccccc1 with its measured growth inhibition.
[reply] -47.6

[ask] Annotate the compound O=C(O)C1CC[N-]CC1.O=C(O)C1CC[N-]CC1.[NH2-].[NH2-].[Pt+4] with its measured growth inhibition.
[reply] 18.4

[ask] Annotate the compound CN(C)CCC(=O)c1cccc(O)c1 with its measured growth inhibition.
[reply] -10.2

[ask] Annotate the compound O=C1c2cc([N+](=O)[O-])ccc2-c2c(F)cccc21 with its measured growth inhibition.
[reply] 4.1

[ask] Annotate the compound CC12CC(c3ccccc3)C(C)(C(c3ccccc3)=C1c1ccccc1)C2(O)c1ccccc1 (stereo not given) with its measured growth inhibition.
[reply] 13.4

[ask] Annotate the compound Brc1cccc(C2SCc3nc4ccccc4n32)c1 (stereo not given) with its measured growth inhibition.
[reply] 21.4

[ask] Annotate the compound Cc1ccc(C2(C)CC/C(=N/N=C3/CCC(C)(c4ccc(C)c(C)c4)c4cc(C)c(C)cc43)c3cc(C)c(C)cc32)cc1C (stereo not given) with its measured growth inhibition.
[reply] -12.4

[ask] Annotate the compound Cc1ccc(I)cc1 with its measured growth inhibition.
[reply] -19.1

[ask] Annotate the compound Cc1c(-c2ccccc2)c(=O)oc2ccc(Cl)cc12 with its measured growth inhibition.
[reply] -15.2
